Data credit: patent US20200247894A1

tgt: T1, Rat IL2Rγ extracellular domain expressed with a C-terminal myc-myc-hexahistidine tag (rat)
T1 construct: whole entry is the tagged construct; also called rIL-2Rg-MMH; rat IL-2Rg-MMH
T1 chain: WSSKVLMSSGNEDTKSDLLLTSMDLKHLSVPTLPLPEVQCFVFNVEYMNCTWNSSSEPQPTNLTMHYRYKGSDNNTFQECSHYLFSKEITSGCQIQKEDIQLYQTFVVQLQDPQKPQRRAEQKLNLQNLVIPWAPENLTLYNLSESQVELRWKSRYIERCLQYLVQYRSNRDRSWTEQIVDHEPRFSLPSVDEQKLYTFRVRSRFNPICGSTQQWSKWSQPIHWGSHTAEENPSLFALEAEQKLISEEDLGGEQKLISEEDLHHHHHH
protocolText: SPR Biacore 4000, anti-hFc-captured mAb, 25 C
Experimental: Equilibrium dissociation constants (KD values) for IL-2Rγ binding to purified anti-IL2Rγ monoclonal antibodies were determined using a Biacore 4000 instrument equipped with a real-time surface plasmon resonance biosensor. […] The dissociation of monoclonal antibody bound IL2Rγ reagents were monitored for 8-10 minutes in HBS-ET running buffer. […] Binding dissociation equilibrium constants (KD) and dissociative half-lives (t_{1/2}) were calculated from the kinetic rate constants as: […]
outcomeMeasure: 100 nM Ag Bound (RU)
State just the number; it will be interpreted in RU.

Examples with answers:
Input line: Tell me 100 nM Ag Bound reported for H4H12858P (antibody, human IgG4 S228P, kappa, V domains shown, fully human anti-IL2Rgamma mAb, human IgG4 Fc; also called REGN9433) VH: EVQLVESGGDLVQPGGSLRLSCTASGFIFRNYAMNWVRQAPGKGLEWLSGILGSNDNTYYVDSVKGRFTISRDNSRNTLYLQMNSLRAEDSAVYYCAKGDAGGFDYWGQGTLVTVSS VL: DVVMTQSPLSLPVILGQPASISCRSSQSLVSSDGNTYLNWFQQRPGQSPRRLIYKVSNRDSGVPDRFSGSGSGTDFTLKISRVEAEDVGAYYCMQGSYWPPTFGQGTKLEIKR
Output line: 0

Input line: Indicate its recorded 100 nM Ag Bound; the binder in question is H4H13541P (antibody, human IgG4 S228P, kappa, V domains shown, fully human anti-IL2Rgamma mAb, human IgG4 Fc) VH: EVQLVESGGGVVRPGGSLRLSCAASGFIFDDYDMSWVRQPPGRGLEWVSGIDWFGGTRGYADSMKGRFTISRDNAKNSLYLQMNSLRVEDTAFYYCARGGAIVGAVTPFDYWGQGTLVTVSS VL: DIQMTQSPSSLSASVGNRVTLSCRASQSINTYLSWYQQRPGKAPKLLIYAASSLQSGVPSRFSGSGAGTDFTLTISSLQPEDFATYYCQQSYSAPLTFGGGTKVEIKR
Output line: 4

Input line: Fill in 100 nM Ag Bound for record H4H12900P (antibody, human IgG4 S228P, kappa, V domains shown, fully human anti-IL2Rgamma mAb, human IgG4 Fc) VH: QVQLVESGGGLVKPGGSLRLSCEASGFTFNDFYMTWIRQAPGKGLEWIAYISKSGDKMRYADSVKGRFSTSRDNAKNSLSLQMNSLRAEDTAVYYCARFYGDIWGQGTLVTVSS VL: DIQLTQSPSFLSASVGDRVTITCWASQDISSFLVWYQQKPGKAPNLLIYAASALQSGVPSRFSGSGSGTEFTLTISSLQPEDFASYYCEQLNNYPWTFGQGTKVEIKR
Output line: 57

Further cases:
Input line: Input H4H12884P (antibody, human IgG4 S228P, kappa, V domains shown, fully human anti-IL2Rgamma mAb, human IgG4 Fc) VH: QVQLQESGPGLVKPSQTLSLTCTVSGGSISSGGYYWSWIRQHPGKGLEWIGFIYYSGKTYYNPSLKSRLTISVDTSKSQFSLKLRSVTAADTAVYYCARLGYTNSAGWFDPWGQGTLVTVSS VL: DIQMTQSPSSLSASVGDRVTITCRASQSISSYLNWYQQKPGKAPNLLIYAASSLQSGVPSRFSGSGSGTDFTLTISSLQPEDLATYYCQQSYTTPFTFGPGTKVDIKR , output reported 100 nM Ag Bound.
Output line: 4

Input line: Supply 100 nM Ag Bound value. Item: H4H12871P (antibody, human IgG4 S228P, kappa, V domains shown, fully human anti-IL2Rgamma mAb, human IgG4 Fc; also called REGN9434) VH: QVQLQESGPGLVKPSQTLSLTCTVSGGSITSGGYYWSWIRQYPGQGLEWIGYIYYSGKTYYNPSFTSRITISVDTSKKQFSLKMSSVTAADTAVYYCARAGFTSSNGWFDPWGQGTLVTVSS VL: DIQMTQSPSSLSASVGDRVTITCRASQNIRSYLNWYQQKPGKAPKLLIYSASSLQSGVPSRFSGSGSGTDFTLTISSLQPEDFPTYYCQQTYSSPWTFGPGTKVEIKR
Output line: 1
